Each entry below carries its reported DC50.
biological target: human HPK1 (Homo sapiens, UniProt Q92918); test: HPK1 protein degradation assay (WB) in RAMOS cell line; assay type: cell-based; parameters: The RAMOS cell line was selected as the degradation cell line; endogenous in cells; host or cells: RAMOS; details: RAMOS cells, 16 h, Western blot
Sequence (Q92918 whole entry): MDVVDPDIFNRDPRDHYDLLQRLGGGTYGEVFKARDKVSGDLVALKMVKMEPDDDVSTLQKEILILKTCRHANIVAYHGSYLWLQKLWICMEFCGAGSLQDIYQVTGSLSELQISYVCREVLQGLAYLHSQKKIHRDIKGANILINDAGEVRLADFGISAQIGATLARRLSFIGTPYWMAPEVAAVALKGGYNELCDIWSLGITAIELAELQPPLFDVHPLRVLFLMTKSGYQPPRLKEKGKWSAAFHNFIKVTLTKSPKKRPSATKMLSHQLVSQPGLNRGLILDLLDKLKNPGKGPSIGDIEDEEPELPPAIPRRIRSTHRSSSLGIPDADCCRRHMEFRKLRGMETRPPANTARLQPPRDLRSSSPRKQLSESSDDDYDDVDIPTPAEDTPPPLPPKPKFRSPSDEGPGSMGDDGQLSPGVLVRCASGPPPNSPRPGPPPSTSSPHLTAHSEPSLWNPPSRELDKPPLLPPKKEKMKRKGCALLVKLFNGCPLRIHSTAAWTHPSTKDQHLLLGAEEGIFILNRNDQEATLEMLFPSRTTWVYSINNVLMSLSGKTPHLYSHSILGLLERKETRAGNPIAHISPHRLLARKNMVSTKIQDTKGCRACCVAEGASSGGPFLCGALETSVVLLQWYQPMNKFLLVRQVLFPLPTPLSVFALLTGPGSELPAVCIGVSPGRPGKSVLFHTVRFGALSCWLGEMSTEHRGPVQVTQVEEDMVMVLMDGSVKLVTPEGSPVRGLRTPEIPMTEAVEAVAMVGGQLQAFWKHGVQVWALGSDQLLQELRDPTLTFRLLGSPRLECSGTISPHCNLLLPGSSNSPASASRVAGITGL

{"compound": "CCN1CCC(n2cc(-c3c[nH]c4ncc(-c5ccc(N6CCC(CC7CCN(C(=O)c8ccc(Cl)c(N9CCC(=O)NC9=O)c8)CC7)CC6)c(F)c5)nc34)cn2)CC1 [Compound C135]", "DC50": "176 nM"}
{"compound": "O=C1CCN(c2cc(C(=O)N3CCC(CC4CCN(c5ccc(-c6cnc7[nH]cc(-c8cnn(CC9CC9)c8)c7n6)cn5)CC4)CC3)ccc2Cl)C(=O)N1 [Compound C177]", "DC50": "632 nM"}
{"compound": "Cn1cc(-c2c[nH]c3ncc(-c4ccc(N5CCC(CC6CCN(C(=O)c7ccc(Cl)c(N8CCC(=O)NC8=O)c7)CC6)CC5)cc4)nc23)cn1 [Compound C140]", "DC50": "198 nM"}
{"compound": "O=C1CCN(c2cc(C(=O)N3CCC(CC4CCN(c5ccc(-c6cnc7[nH]cc(-c8cn[nH]c8)c7n6)cn5)CC4)CC3)ccc2Cl)C(=O)N1 [Compound C198]", "DC50": "32.9 nM"}
{"compound": "O=C1CCN(c2cc(C(=O)N3CCC(CC4CCN(c5ccc(-c6cnc7[nH]cc(-c8cnn(C9CC9)c8)c7n6)cn5)CC4)CC3)ccc2Cl)C(=O)N1 [Compound C170]", "DC50": "52.2 nM"}
{"compound": "O=C1CCN(c2cc(C(=O)N3CCC(CC4CCN(c5ccc(-c6cnc7[nH]cc(-c8cnn(CC(F)F)c8)c7n6)cn5)CC4)CC3)ccc2Cl)C(=O)N1 [Compound C195]", "DC50": "18.7 nM"}
{"compound": "O=C1CCC(c2cc(C(=O)N3CCC(CC4CCN(c5ccc(-c6cnc7[nH]cc(-c8cnn(CCO)c8)c7n6)cn5)CC4)CC3)ccc2Cl)C(=O)N1 (centres unmarked) [Compound C209]", "DC50": "29 nM"}
{"compound": "CCN1CCC(n2cc(-c3c[nH]c4ncc(-c5cnc(OCCNC(=O)c6ccc(Cl)c(N7CCC(=O)NC7=O)c6)c(C)c5)nc34)cn2)CC1 [Compound C022]", "DC50": "55 nM"}
{"compound": "Cn1cc(-c2c[nH]c3ncc(-c4ccc(N5CCC(CC6CCN(C(=O)c7ccc(Cl)c(C8CCC(=O)NC8=O)c7)CC6)CC5)nc4)nc23)cn1 (centres unmarked) [Compound C206]", "DC50": "190 nM"}
{"compound": "C/C(=C(Cl)\\C=C/CC(=O)N1CCC(CC2CCN(c3ccc(-c4cnc5[nH]cc(-c6cnn(C)c6)c5n4)cn3)CC2)CC1)N1CCC(=O)NC1=O [Compound C110]", "DC50": "9.35 nM"}
{"compound": "COCCn1cc(-c2c[nH]c3ncc(-c4ccc(N5CCC(CC6CCN(C(=O)c7ccc(Cl)c(N8CCC(=O)NC8=O)c7)CC6)CC5)nc4)nc23)cn1 [Compound C201]", "DC50": "30.6 nM"}
{"compound": "O=C1CCN(c2cc(C(=O)N3CCC(CC4CCN(c5ccc(-c6cnc7[nH]cc(-c8cnn(CCF)c8)c7n6)cn5)CC4)CC3)ccc2Cl)C(=O)N1 [Compound C197]", "DC50": "5.28 nM"}
{"compound": "CCN1CCC(n2cc(-c3c[nH]c4ncc(-c5ccc(N6CCC(OC7CCN(C(=O)c8ccc(Cl)c(N9CCC(=O)NC9=O)c8)CC7)CC6)c(C)c5)nc34)cn2)CC1 [Compound C132]", "DC50": "29.3 nM"}
{"compound": "Cc1ccc(C(=O)N2CCC(CC3CCN(c4ncc(-c5cnc6[nH]cc(-c7cnn(C)c7)c6n5)cn4)CC3)CC2)cc1N1CCC(=O)NC1=O [Compound C204]", "DC50": "58 nM"}
{"compound": "Cn1cc(-c2c[nH]c3ncc(-c4cnc(N5CCC(CC6CCN(C(=O)c7ccc(Cl)c(N8CCC(=O)NC8=O)c7)CC6)CC5)nc4)nc23)cn1 [Compound C203]", "DC50": "5.99 nM"}
{"compound": "CCN1CCC(n2cc(-c3c[nH]c4ncc(-c5ccc(N6CCC(OC7CCN(C(=O)c8ccc(Cl)c(N9CCC(=O)NC9=O)c8)CC7)CC6)c(F)c5)nc34)cn2)CC1 [Compound C134]", "DC50": "7.22 nM"}
{"compound": "CCN1CCC(n2cc(-c3c[nH]c4ncc(-c5ccc(N6CCC(OC7CCN(C(=O)c8ccc(Cl)c(N9CCC(=O)NC9=O)c8)CC7)CC6)cc5)nc34)cn2)CC1 [Compound C131]", "DC50": "386 nM"}

Ref: patent US20260116884A1
